EXPERIMENTAL TARGET: Rap guanine nucleotide exchange factor 3 (Homo sapiens)
PROTOCOL: Counterscreen qHTS for agonist of cAMP-regulated guanine nucleotide exchange factor 3 (EPAC1) (AID 1645889); note: % of control where 0% means no effect; nearly all actives have a fitted effect of over 40% in size
EXPERIMENTAL CONTEXT: EPAC1 Rap1B-BODIPY-GDP exchange, fluorescence; series mostly up to 154 µM
Inconclusive results are not listed. The source made the active and inactive calls. Calls come from the whole dose curve; as a rule, active = well fitted activation curve with a large enough effect; inconclusive = small, poorly fitted or top-dose-only effect, or another doubt; inactive = no such curve, though single readings can be large or run the other way.
PROPERTY: activation

Example entries begin here.
O=c1[nH]c(=O)n(-c2cccc(F)c2)c(O)c1/C=C1\C=Nc2ccccc21 = inactive
O=C1NC(=O)N(Cc2ccco2)C(=O)/C1=C/c1cccn1CCOc1ccccc1Cl = inactive
O=[N+]([O-])c1ccc(N2CCOCC2)c2c1no[n+]2[O-] = inactive
Cc1ccc(CN2CCCN(Cc3ccccc3C)S2(=O)=O)cc1 = inactive
CCCOC(=O)c1ccccc1C(=O)OCCC = 23.9% [at 30.8 µM] (inactive)

Attention now turns to another entry.
Query: Which activation value belongs to `NC(=O)c1ccc(N=Cc2c(O)n(Cc3ccco3)c(=O)[nH]c2=O)cc1` ?
Response: inactive
